Molecular target: T1, human VEGF (hVEGF) (human, UniProt P15692 181-395)
T1 construct: also called VEGF-A
T1 sequence: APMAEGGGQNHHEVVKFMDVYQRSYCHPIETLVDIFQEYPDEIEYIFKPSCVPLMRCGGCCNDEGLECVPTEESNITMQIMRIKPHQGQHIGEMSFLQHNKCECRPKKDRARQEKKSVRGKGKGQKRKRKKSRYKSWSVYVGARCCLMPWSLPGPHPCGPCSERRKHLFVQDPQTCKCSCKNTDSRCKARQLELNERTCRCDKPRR
Assay: SPR single-cycle;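 also: fab variants injected over hVEGF immobilized on a CM5 chip (Biacore T200), threefold dilution series from 0.02 to 50 nM, kinetics fitted with a 1:1 Langmuir model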
measure.name: kon
Enter the number, and then the unit.

Look up kon: G6.31 HC-P41R (Fab, name in Kabat numbering, V domains shown, Fab) VH: EVQLVESGGGLVQPGGSLRLSCAASGFTISDYWIHWVRQARGKGLEWVAGITPAGGYTYYADSVKGRFTISADTSKNTAYLQMNSLRAEDTAVYYCARFVFFLPYAMDYWGQGTLVTVSS VL: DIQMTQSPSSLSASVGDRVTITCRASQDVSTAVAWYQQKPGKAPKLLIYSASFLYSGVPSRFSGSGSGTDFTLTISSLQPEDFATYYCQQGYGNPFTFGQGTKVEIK
571000 M⁻¹ s⁻¹

Look up kon: G6.31 HC-K75E (Fab, name in Kabat numbering, V domains shown, Fab) VH: EVQLVESGGGLVQPGGSLRLSCAASGFTISDYWIHWVRQAPGKGLEWVAGITPAGGYTYYADSVKGRFTISADTSENTAYLQMNSLRAEDTAVYYCARFVFFLPYAMDYWGQGTLVTVSS VL: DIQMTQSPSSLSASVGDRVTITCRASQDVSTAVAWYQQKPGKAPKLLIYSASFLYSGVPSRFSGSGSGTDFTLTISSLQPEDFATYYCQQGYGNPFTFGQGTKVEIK
217000 M⁻¹ s⁻¹
